All values here come from ChEMBL document CHEMBL2218924.

molecular target: SRSF protein kinase 2 (Homo sapiens) (UniProt P78362); settings: at 1 µM
Sequence (P78362 whole entry, looked up): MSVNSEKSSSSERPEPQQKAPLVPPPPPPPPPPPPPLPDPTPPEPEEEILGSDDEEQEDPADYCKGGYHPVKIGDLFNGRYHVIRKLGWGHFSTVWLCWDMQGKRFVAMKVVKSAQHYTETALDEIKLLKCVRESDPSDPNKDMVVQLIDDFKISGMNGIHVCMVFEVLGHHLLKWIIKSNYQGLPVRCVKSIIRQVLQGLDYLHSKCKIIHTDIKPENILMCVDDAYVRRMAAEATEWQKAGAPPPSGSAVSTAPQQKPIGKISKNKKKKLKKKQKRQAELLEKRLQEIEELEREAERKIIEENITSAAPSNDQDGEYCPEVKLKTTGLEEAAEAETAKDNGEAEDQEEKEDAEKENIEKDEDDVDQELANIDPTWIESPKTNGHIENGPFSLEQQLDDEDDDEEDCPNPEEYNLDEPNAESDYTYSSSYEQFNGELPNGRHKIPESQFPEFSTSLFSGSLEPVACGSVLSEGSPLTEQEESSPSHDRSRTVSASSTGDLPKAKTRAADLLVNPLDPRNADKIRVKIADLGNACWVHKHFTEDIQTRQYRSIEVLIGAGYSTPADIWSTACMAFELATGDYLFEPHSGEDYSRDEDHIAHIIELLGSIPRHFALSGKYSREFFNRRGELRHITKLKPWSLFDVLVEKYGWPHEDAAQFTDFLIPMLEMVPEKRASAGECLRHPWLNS
Threshold-based label: residual activity under 90% gives Fulfilled, residual activity not under 90% gives Not fulfilled.

structure_notation=COc1cc2ncnc(Nc3cccc(Cl)c3)c2cc1OC target_entity="SRSF protein kinase 2 (Homo sapiens) (UniProt P78362)" class_label="Not fulfilled"
structure_notation=COc1ccc(Cl)cc1NC(=O)Nc1cc(C)nc2ccccc12 target_entity="SRSF protein kinase 2 (Homo sapiens) (UniProt P78362)" class_label="Not fulfilled"
structure_notation=O=C(Nc1nc2ccccc2n1CCN1CCOCC1)c1cccc([N+](=O)[O-])c1 target_entity="SRSF protein kinase 2 (Homo sapiens) (UniProt P78362)" class_label=Fulfilled
structure_notation=Cn1sc(=O)n(Cc2ccccc2)c1=O target_entity="SRSF protein kinase 2 (Homo sapiens) (UniProt P78362)" class_label="Not fulfilled"
structure_notation=O=c1cc(N2CCOCC2)oc2c1ccc1ccccc12 target_entity="SRSF protein kinase 2 (Homo sapiens) (UniProt P78362)" class_label="Not fulfilled"
structure_notation=O=C1NC(=O)C(c2c[nH]c3ccccc23)=C1c1c[nH]c2ccccc12 target_entity="SRSF protein kinase 2 (Homo sapiens) (UniProt P78362)" class_label=Fulfilled
structure_notation=Nc1ncnc2[nH]nc(Nc3ccc(F)cc3)c12 target_entity="SRSF protein kinase 2 (Homo sapiens) (UniProt P78362)" class_label="Not fulfilled"
structure_notation=O=C1Nc2ccc(Cl)cc2/C1=C/c1cc(Cl)c(O)c(Cl)c1 target_entity="SRSF protein kinase 2 (Homo sapiens) (UniProt P78362)" class_label="Not fulfilled"
structure_notation=Nc1n[nH]c2nc3ccccc3nc12 target_entity="SRSF protein kinase 2 (Homo sapiens) (UniProt P78362)" class_label="Not fulfilled"
structure_notation=CC(C)c1nn(-c2c(Cl)cccc2Cl)c2nc(Cc3ccc(OCCO)cc3)[nH]c(=O)c12 target_entity="SRSF protein kinase 2 (Homo sapiens) (UniProt P78362)" class_label=Fulfilled

* * *

target: Serine/threonine-protein kinase PAK 4 (Homo sapiens) (UniProt O96013); settings: at 1 µM
Sequence (O96013 whole entry, looked up): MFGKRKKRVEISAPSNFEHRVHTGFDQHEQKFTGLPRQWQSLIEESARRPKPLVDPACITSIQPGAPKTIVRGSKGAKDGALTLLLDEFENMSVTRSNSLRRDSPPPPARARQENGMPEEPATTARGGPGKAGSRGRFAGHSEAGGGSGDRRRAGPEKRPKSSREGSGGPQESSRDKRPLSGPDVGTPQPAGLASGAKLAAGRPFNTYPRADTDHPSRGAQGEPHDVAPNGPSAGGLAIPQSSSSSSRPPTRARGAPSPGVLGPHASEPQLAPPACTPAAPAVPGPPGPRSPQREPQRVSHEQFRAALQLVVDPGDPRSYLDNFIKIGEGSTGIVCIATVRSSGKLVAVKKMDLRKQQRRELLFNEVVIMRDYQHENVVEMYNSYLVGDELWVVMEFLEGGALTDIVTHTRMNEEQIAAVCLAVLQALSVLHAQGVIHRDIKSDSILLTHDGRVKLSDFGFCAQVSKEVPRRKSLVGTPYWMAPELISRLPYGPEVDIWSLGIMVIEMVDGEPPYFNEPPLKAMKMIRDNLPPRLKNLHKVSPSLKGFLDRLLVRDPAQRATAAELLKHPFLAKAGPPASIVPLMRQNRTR
PROPERTY_NAME: residual activity

structure_notation=CC(C)(C)n1nc(Cc2cccc3ccccc23)c2c(N)ncnc21 property_name="residual activity" result=88%
structure_notation=Oc1cccc(-c2nc(N3CCOCC3)c3oc4ncccc4c3n2)c1 property_name="residual activity" result=100%
structure_notation=Cn1c2ccccc2c2c3c(c4c5ccccc5n(CCC#N)c4c21)CNC3=O property_name="residual activity" result=3%
structure_notation=NC(=O)c1ccc(-c2nc(-c3ccc4c(c3)OCCO4)c(-c3ccccn3)[nH]2)cc1 property_name="residual activity" result=99%
structure_notation=Nc1ncnc2[nH]nc(Nc3ccc(F)cc3)c12 property_name="residual activity" result=111%

* * *

target: Death-associated protein kinase 2 (Homo sapiens); settings: at 1 µM
Each item that follows carries a reported residual activity.
PROPERTY_NAME: residual activity

compound=COc1cc2c(cc1OC)-c1n[nH]c(Nc3cccc(F)c3)c1C2 result=99%
compound=Oc1cccc(-c2nc(N3CCOCC3)c3oc4ncccc4c3n2)c1 result=93%
compound=Cn1sc(=O)n(Cc2ccccc2)c1=O result=97%
compound=O=C1NC(=O)c2c1c1c3ccccc3[nH]c1n1cncc21 result=9%
compound=CCCC(=O)Oc1ccc2[nH]c(C(=O)c3cc4ccccc4[nH]3)cc2c1 result=95%
compound=O=C(O)/C=C/c1cc(Br)c(Br)c(Br)c1Br result=91%
compound=O=C(CCCc1ccc(-c2ccccc2F)cc1)Nc1ccc(O)cc1 result=102%
compound=CC(C)(C)c1nc2c3ccc(F)cc3c3c(=O)[nH]ccc3c2[nH]1 result=11%
compound=Cn1c2ccccc2c2c3c(c4c5ccccc5n(CCC#N)c4c21)CNC3=O result=93%
compound="CSc1nc(-c2ccc(F)cc2)c(-c2ccnc(NC(C)c3ccccc3)c2)[nH]1 (stereo unspecified)" result=101%
compound=Nc1ncnc2[nH]nc(Nc3ccc(F)cc3)c12 result=99%
